# protocolNotes: Cytotoxicity against human OVCAR3 cells
# Assay type: functional
# reportedConditions: OVCAR-3
Assignment: determine reported GI50 for the given compounds.
Just the number in µM, nothing appended.

Data point: COc1cc(/C=C/c2cc(OC)c3c(CC=C(C)C)c[nH]c3c2)cc2c1O[C@]1(C)CC[C@@H](O)C(C)(C)[C@H]1C2 ; GI50 = 2.82

Item: COc1cc(/C=C/c2cc(O)c3cc(CC=C(C)C)[nH]c3c2)cc2c1O[C@]1(C)CC[C@@H](O)C(C)(C)[C@H]1C2 | GI50: 43.7

Record COc1cc(/C=C/c2cc(O)c3c(c2)C[C@@H]2C(C)(C)[C@H](O)CC[C@@]2(C)O3)cc2[nH]cc(CC=C(C)C)c12 , field GI50: 8.71

The compound COc1cc(/C=C/c2cc(O)c3cc[nH]c3c2)cc2c1O[C@]1(C)CC[C@@H](O)C(C)(C)[C@H]1C2 showed GI50 equal to 1.82

Looking up COc1cc(/C=C/c2cc(O)c3c(CC=C(C)C)c[nH]c3c2)cc2c1O[C@]1(C)CC[C@@H](O)C(C)(C)[C@H]1C2 , I see its GI50 listed as 13.5

GI50 reading for CC1(C)[C@H](O)CC[C@@]2(C)Oc3c(O)cc(/C=C/c4cc(O)c5cc[nH]c5c4)cc3C[C@H]12 : 3.47

COc1cc(/C=C/c2cc(O)c3ccn(C)c3c2)cc2c1O[C@]1(C)CC[C@@H](O)C(C)(C)[C@H]1C2 yielded GI50 of 4.79
